- Tested on: enterovirus D68
- assay_text: Antiviral activity against enterovirus D68 US/MO/14-18947 infected in human RD cells assessed as reduction in virus plaque formation measured after 3 days by neutral red staining assay
- Format: functional, organism-based
- test_context: Enterovirus D, US/MO/14-18947, RD, 72 h
This listing pairs compounds with measured EC50.
readout_name: EC50 (µM)

* CC(C)(C)[C@H](NC(=O)CC12CC3CC(CC(C3)C1)C2)C(=O)N1C[C@@H]2CCC[C@@H]2[C@H]1C(=O)N[C@H](C(=O)C(=O)NC1CC1)C1CCCC1 | 0.0159
* CCC[C@H](NC(=O)[C@@H]1[C@H]2CCC[C@H]2CN1C(=O)[C@@H](NC(=O)[C@@H](NC(=O)c1cnccn1)C1CCCCC1)C(C)(C)C)C(=O)C(=O)NC1CC1 | 0.0521
* CCC(C)[C@H](NC(=O)[C@@H]1[C@H]2CCC[C@H]2CN1C(=O)[C@@H](NC(=O)CC12CC3CC(CC(C3)C1)C2)C(C)(C)C)C(=O)C(=O)NC1CC1 (some centres undefined) | 0.0135
* CC(C)(C)[C@H](NC(=O)CC12CC3CC(CC(C3)C1)C2)C(=O)N1C[C@@H]2CCC[C@@H]2[C@H]1C(=O)N[C@H](C(=O)C(=O)NC1CC1)C1CCCCC1 | 0.0159

====

- experimental_system: Cytochrome P450 2D6 (Homo sapiens)
- Sequence (P10635 whole entry): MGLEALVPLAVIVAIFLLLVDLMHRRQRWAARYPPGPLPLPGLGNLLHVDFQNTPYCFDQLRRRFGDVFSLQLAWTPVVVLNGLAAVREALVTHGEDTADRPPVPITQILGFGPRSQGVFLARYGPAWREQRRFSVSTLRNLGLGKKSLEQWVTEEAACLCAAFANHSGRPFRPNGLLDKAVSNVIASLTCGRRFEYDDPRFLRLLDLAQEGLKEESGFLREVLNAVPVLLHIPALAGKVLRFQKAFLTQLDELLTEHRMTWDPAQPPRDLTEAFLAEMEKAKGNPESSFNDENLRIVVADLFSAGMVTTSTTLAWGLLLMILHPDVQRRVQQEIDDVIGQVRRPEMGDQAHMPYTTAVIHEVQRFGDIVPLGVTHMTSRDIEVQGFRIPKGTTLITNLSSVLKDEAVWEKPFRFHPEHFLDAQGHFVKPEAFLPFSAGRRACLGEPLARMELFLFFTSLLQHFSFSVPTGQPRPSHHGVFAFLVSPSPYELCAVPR
readout_name: IC50

* CC(C)(C)[C@H](NC(=O)CC12CC3CC(CC(C3)C1)C2)C(=O)N1C[C@@H]2CCC[C@@H]2[C@H]1C(=O)N[C@H](C(=O)C(=O)NC1CC1)C1CCCCC1 | > 50 µM

====

Recorded CC50, one value per entry.
- assay_text: Cytotoxicity against human RD cells assessed as reduction in cell viability by neutral red staining based CPE assay
- Format: toxicity
- test_context: RD cells
readout_name: CC50

• CC(C)[C@H](NC(=O)[C@@H]1[C@H]2CCC[C@H]2CN1C(=O)[C@@H](NC(=O)CC12CC3CC(CC(C3)C1)C2)C(C)(C)C)C(=O)C(=O)NC1CC1 = > 150 µM
• CCC[C@H](NC(=O)[C@@H]1[C@H]2CCC[C@H]2CN1C(=O)[C@@H](NC(=O)CC12CC3CC(CC(C3)C1)C2)C(C)(C)C)C(=O)C(=O)NC1CC1 = 36.2 µM
• CCC[C@@H](C#N)NC(=O)[C@@H]1[C@H]2CCC[C@H]2CN1C(=O)[C@@H](NC(=O)CC12CC3CC(CC(C3)C1)C2)C(C)(C)C = > 150 µM
• CC(C)(C)[C@H](NC(=O)CC12CC3CC(CC(C3)C1)C2)C(=O)N1C[C@@H]2CCC[C@@H]2[C@H]1C(=O)N[C@@H](Cc1ccc(F)cc1)C(=O)c1nc2ccccc2s1 = > 150 µM
• CC(C)(C)[C@H](NC(=O)CC12CC3CC(CC(C3)C1)C2)C(=O)N1C[C@@H]2CCC[C@@H]2[C@H]1C(=O)N[C@H](C(=O)C(N)=O)C1CCCCC1 = > 150 µM
• CC(C)(C)[C@H](NC(=O)NC12CC3CC(CC(C3)C1)C2)C(=O)N1C[C@@H]2CCC[C@@H]2[C@H]1C(=O)N[C@@H](Cc1ccc(F)cc1)C(=O)C(=O)NC1CC1 = 21.3 µM
• CC(C)(C)[C@H](NC(=O)CC12CC3CC(CC(C3)C1)C2)C(=O)N1C[C@@H]2CCC[C@@H]2[C@H]1C(=O)N[C@@H](Cc1ccc(F)cc1)C(=O)C(=O)NC1CC1 = 14.1 µM
• CCC[C@H](NC(=O)[C@@H]1[C@H]2CCC[C@H]2CN1C(=O)OCc1ccccc1)C(=O)C(=O)NC1CC1 = > 150 µM
